assay: Peptide stability, trypsin digestion analyzed by RP-HPLC; format: in vitro ADME; settings: 20 minutes after exposure to trypsin; read-out: degraded
Ends that are not written are not given here.
measurement.name: metabolised at 20 min (%)
Quick note: give the figure in %, leave out the unit.

Input: What value of measured metabolised at 20 min is listed for YGRKKRRQRRRGGRAITILDTEKS [V1-cal] ?
Output: 100
